Exercise: state measured residual activity for each of the molecules provided.
Biological target: Casein kinase II (Homo sapiens) (UniProt P67870+P68400+P19784);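 also: residual kinase activity expressed relative to control, in HEPES buffer at pH 7.6 with NaCl, EDTA, DTT and Triton X-100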
Sequence (P19784 whole entry, looked up): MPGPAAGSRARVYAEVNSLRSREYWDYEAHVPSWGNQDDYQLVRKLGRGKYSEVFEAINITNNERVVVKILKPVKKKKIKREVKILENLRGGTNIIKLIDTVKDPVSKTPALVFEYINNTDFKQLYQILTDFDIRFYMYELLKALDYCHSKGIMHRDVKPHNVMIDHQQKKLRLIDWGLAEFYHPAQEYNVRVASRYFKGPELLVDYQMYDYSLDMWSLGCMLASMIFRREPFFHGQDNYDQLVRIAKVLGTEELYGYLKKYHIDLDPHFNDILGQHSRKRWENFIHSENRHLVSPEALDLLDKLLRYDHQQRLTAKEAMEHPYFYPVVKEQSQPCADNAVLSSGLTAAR
Sequence (P67870 whole entry, looked up): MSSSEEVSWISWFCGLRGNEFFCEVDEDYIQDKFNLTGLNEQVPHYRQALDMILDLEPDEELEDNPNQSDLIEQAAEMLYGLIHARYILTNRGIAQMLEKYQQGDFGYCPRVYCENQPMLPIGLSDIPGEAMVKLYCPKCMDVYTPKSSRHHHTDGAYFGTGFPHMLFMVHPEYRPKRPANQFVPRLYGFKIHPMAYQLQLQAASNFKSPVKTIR
Sequence (P68400 whole entry, looked up): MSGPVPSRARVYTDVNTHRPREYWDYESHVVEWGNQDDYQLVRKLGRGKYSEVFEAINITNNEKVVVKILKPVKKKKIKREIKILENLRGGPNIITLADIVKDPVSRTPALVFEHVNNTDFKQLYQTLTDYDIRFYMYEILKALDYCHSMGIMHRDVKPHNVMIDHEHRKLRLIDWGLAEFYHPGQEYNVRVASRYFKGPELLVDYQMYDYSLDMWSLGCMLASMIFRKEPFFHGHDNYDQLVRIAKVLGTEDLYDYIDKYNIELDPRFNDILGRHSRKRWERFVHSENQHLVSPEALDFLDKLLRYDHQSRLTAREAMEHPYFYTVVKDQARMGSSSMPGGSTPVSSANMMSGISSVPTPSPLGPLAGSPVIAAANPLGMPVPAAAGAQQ
Conditions: at 1 µM
Description: Millipore: Percentage of residual kinase activity of CSNK2A1 at 1uM relative to control. Control inhibitor: Jnk Inhibitor II at 100.0uM. Buffer: 20 mM HEPES pH 7.6, 0.15 M NaCl, 0.1 mM EDTA, 5 mM DTT, 0.1% Triton X-100
Return type: number; implicit unit %.

Indicate the recorded residual activity value for this molecule: O=C1Cc2c([nH]c3ccc(Br)cc23)-c2ccccc2N1
79

Indicate the recorded residual activity value for this molecule: Fc1ccc(-c2nc3n(c2-c2ccncc2)CCS3)cc1
99

Indicate the recorded residual activity value for this molecule: O=C1Nc2ccc(Cl)cc2/C1=C/c1cc(Cl)c(O)c(Cl)c1
41

Indicate the recorded residual activity value for this molecule: CCCCc1c(-c2ccc(O)cc2)[nH]c2nccnc12
99

Indicate the recorded residual activity value for this molecule: CCOC(=O)c1c(C)[nH]c(/C=C2\C(=O)Nc3ccccc32)c1C
77

Indicate the recorded residual activity value for this molecule: O=C1C(Cl)=C(N2C(=O)CCC2=O)C(=O)c2ccccc21
99

Indicate the recorded residual activity value for this molecule: O=c1cc(N2CCOCC2)oc2c(-c3ccccc3)cccc12
54

Indicate the recorded residual activity value for this molecule: COc1cc2c(cc1OC)-c1n[nH]c(Nc3cccc(F)c3)c1C2
82

Indicate the recorded residual activity value for this molecule: N#C/C(=C1/Nc2ccccc2S1)c1ccnc(NCCc2cccnc2)n1
58

Indicate the recorded residual activity value for this molecule: O=C(O)/C=C/c1cc(Br)c(Br)c(Br)c1Br
12

Indicate the recorded residual activity value for this molecule: CN(C)S(=O)(=O)c1ccc2c(c1)/C(=C/c1cc3c([nH]1)CCCC3)C(=O)N2
95

Indicate the recorded residual activity value for this molecule: NC(=O)c1cccc(-c2cc(Nc3ccc(OC(F)(F)F)cc3)ncn2)c1
99

Indicate the recorded residual activity value for this molecule: COc1ccc(Cl)cc1NC(=O)Nc1cc(C)nc2ccccc12
94

Indicate the recorded residual activity value for this molecule: CSc1nc(-c2ccc(F)cc2)c(-c2ccnc(NC(C)c3ccccc3)c2)[nH]1 (centres undefined)
99

Indicate the recorded residual activity value for this molecule: CC(C)(C)c1nc2c3ccc(F)cc3c3c(=O)[nH]ccc3c2[nH]1
56

Indicate the recorded residual activity value for this molecule: Oc1cccc(-c2nc(N3CCOCC3)c3oc4ncccc4c3n2)c1
89

Indicate the recorded residual activity value for this molecule: O=c1cc(N2CCOCC2)oc2c1ccc1ccccc12
18

Indicate the recorded residual activity value for this molecule: O=C1NC(=O)c2c1c1c3ccccc3[nH]c1n1cncc21
60

Indicate the recorded residual activity value for this molecule: NC(=O)c1ccc(-c2nc(-c3ccc4c(c3)OCCO4)c(-c3ccccn3)[nH]2)cc1
95

Indicate the recorded residual activity value for this molecule: Nc1ncnc2c1cnn2-c1ccccc1
87

Indicate the recorded residual activity value for this molecule: O=C(CCCc1ccc(-c2ccccc2F)cc1)Nc1ccc(O)cc1
92

Indicate the recorded residual activity value for this molecule: N#Cc1c(NC(=O)c2cccc3ccccc23)sc2c1CCCC2
97

Indicate the recorded residual activity value for this molecule: O=C(c1ccccc1)c1ccc(N2CCOCC2)cc1O
88

Indicate the recorded residual activity value for this molecule: NC(=O)Nc1sc(-c2ccc(F)cc2)cc1C(N)=O
68

----------
Target: Calcium/calmodulin-dependent protein kinase type II subunit delta (Homo sapiens) (UniProt Q13557)
Sequence (Q13557 whole entry): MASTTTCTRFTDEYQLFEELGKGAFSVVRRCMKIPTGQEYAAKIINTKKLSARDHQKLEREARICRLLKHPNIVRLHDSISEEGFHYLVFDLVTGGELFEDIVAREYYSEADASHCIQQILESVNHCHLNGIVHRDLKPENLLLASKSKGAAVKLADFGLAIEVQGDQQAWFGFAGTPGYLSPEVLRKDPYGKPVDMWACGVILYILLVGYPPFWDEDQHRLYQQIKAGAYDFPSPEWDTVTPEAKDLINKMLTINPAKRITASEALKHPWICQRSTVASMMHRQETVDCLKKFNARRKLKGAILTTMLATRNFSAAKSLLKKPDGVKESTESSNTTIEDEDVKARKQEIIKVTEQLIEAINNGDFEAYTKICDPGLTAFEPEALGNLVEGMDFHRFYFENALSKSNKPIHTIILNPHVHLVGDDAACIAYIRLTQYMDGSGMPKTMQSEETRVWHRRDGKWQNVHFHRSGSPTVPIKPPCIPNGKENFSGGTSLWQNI
Conditions: at 1 µM
Exercise: state measured residual activity for each of the compounds provided.
Return type: number; implicit unit %.

Indicate the recorded residual activity value for this compound: CC(C)(C)n1nc(Cc2cccc3ccccc23)c2c(N)ncnc21
106

Indicate the recorded residual activity value for this compound: O=C1Cc2c([nH]c3ccc([N+](=O)[O-])cc23)-c2ccccc2N1
32

Indicate the recorded residual activity value for this compound: NC(=O)Nc1sc(-c2ccc(F)cc2)cc1C(N)=O
83

Indicate the recorded residual activity value for this compound: NCCNc1ncc(C(N)=O)c(Nc2cccc(C(F)(F)F)c2)n1
51

Indicate the recorded residual activity value for this compound: O=C(NC(NC(=S)Nc1ccc(F)c([N+](=O)[O-])c1)C(Cl)(Cl)Cl)C(c1ccccc1)c1ccccc1 (stereo unspecified)
99

Indicate the recorded residual activity value for this compound: CN([C@@H](Cc1ccc(OS(=O)(=O)c2cccc3cnccc23)cc1)C(=O)N1CCN(c2ccccc2)CC1)S(=O)(=O)c1cccc2cnccc12
99
